- testDetails: Ratio of drug level in HFD-fed C57BL/6 mouse liver to plasma at 30 mg/kg, ip measured 4 hrs post dose
- Type: ADME, organism-based
quantity: Kp at 4 h
Output spec: single numeric token, no unit.

Input: # Kp at 4 h lookup, item COc1ccc(Sc2ccc(Sc3nncn3C)nc2C(=O)Nc2ncc(SCC(=O)O)s2)cc1
Output: 14.9

====

- testDetails: Ratio of drug level in HFD-fed C57BL/6 mouse pancreas to plasma at 30 mg/kg, ip measured 4 hrs post dose
- Type: ADME, organism-based
quantity: Kp at 4 h
Answer with the value's number alone.

Input: I'd like to know its Kp at 4 h. The compound in question is COc1ccc(Sc2ccc(Sc3nncn3C)nc2C(=O)Nc2ncc(SCC(=O)O)s2)cc1
Output: 0.16

====

- testDetails: Total drug level in HFD-fed C57BL/6 mouse liver at 30 mg/kg, ip measured 4 hrs post dose
- Type: ADME, organism-based
- conditionInfo: read-out: Drug uptake
quantity: concentration at 4 h (µM)
Kindly provide the numeric value in µM only, without the unit symbol.

Input: Returns the measured concentration at 4 h for the input molecule. Input: COc1ccc(Sc2ccc(Sc3nncn3C)nc2C(=O)Nc2ncc(SCC(=O)O)s2)cc1
Output: 452

====

- testDetails: Ratio of drug level in HFD-fed C57BL/6 mouse pancreas to plasma at 3 mg/kg, po measured 4 hrs post dose
- Format: ADME, organism-based
quantity: Kp at 4 h

Input: Quick one: Kp at 4 h of O=C(O)Cc1nc(NC(=O)c2nc(Sc3ccccn3)ccc2Sc2ccc(F)cc2)sc1Cl ?
Output: 0.13

====

- testDetails: Apparent permeability of the compound
- Type: physicochemical
- conditionInfo: not told
quantity: Papp

As a guide, the following entries are already answered.
Input: For COc1ccc(Sc2ccc(Sc3ccccn3)nc2C(=O)Nc2nc(CC(=O)O)c(Cl)s2)cc1 , what is its reported Papp?
Output: 22 ×10⁻⁶ cm/s

Input: Bench note: what Papp did O=C(O)Cc1nc(NC(=O)c2nc(Sc3ccccn3)ccc2Sc2ccc(F)cc2)sc1Cl show?
Output: 25 ×10⁻⁶ cm/s

Input: Report Papp for COc1ccc(Sc2ccc(Sc3nncn3C)nc2C(=O)Nc2ncc(SCC(=O)O)s2)cc1 please.
Output: 2 ×10⁻⁶ cm/s

Input: Dear colleague, I am looking for the recorded Papp of the following molecule: COc1ccc(Sc2ccc(Sc3ccccn3)nc2C(=O)Nc2ncc(SCC(=O)O)s2)cc1
Output: 26 ×10⁻⁶ cm/s

Please look at the following molecule next.
Input: Fill in the blank: the reported Papp of Cc1ccc(Sc2ccc(Sc3nnc[nH]3)nc2C(=O)Nc2ncns2)cn1 is ____.
Output: 21 ×10⁻⁶ cm/s

====

- testDetails: Mean residence time in rat
- Assay type: ADME
- conditionInfo: in vivo
quantity: MRT (min)
Give the value in min but do not write min after it.

Known MRT results, listed for orientation:
Input: Which MRT reading was recorded for the molecule O=C(O)Cc1nc(NC(=O)c2nc(Sc3ccccn3)ccc2Sc2ccc(F)cc2)sc1Cl ?
Output: 84

Input: Param item = COc1ccc(Sc2ccc(Sc3nncn3C)nc2C(=O)Nc2ncc(SCC(=O)O)s2)cc1 ; retrieve measured MRT.
Output: 38.4

New cases:
Input: GET /values?readout=MRT&item= COc1ccc(Sc2ccc(Sc3ccccn3)nc2C(=O)Nc2ncc(SCC(=O)O)s2)cc1
Output: 45.6

Sourced from ChEMBL document CHEMBL4014286
